measure name: melting point

Would you please look over these solved cases?
# compound, measure name, result
records = [
    ("COC(=O)c1nc(Cl)nc(NCc2ccco2)c1Cl", "melting point", "110 to 112 °C"),
    ("CCC(=O)Oc1ccc(-c2nn(C3CCCC3)c3c(F)cccc23)cc1", "melting point", "60 to 61 °C"),
    ("C[C@H](NC(=O)OCc1ccccc1)C(=O)c1ccc(OCc2ccccc2)cc1", "melting point", "89 to 91 °C"),
    ("O=C1CC(c2cccc(-n3cncn3)c2)=Nc2ccc(-c3ccc(F)cc3)cc2N1", "melting point", "241 to 245 °C"),
    ("COc1ccc2c3c(c(=O)oc2c1)CN(Cc1ccc(Cl)c(Cl)c1)CC3", "melting point", "144 to 146 °C"),
]

The compound identified as CCCC12CCC3C4CCCC=C4CCC3C1CCC2=O (stereo not given) registered its melting point at 89 to 90 °C

Lab note: measured melting point of `Cc1c(F)c(F)cc2c1c(=O)c(C(=O)O)cn2-c1cc(N)c(F)cc1F` was > 270 °C

Kindly note the recorded melting point for `CC1(CN)CN(c2cc3c(cc2F)c(=O)c(C(=O)O)cn3C2CC2)C1` , which is 274 to 279 °C

The value of melting point measured for the compound CC(C)c1cc(-c2ccncc2)c(-c2ccc(F)cc2)n1CCC1CC(O)CC(=O)O1 (stereo not given) turned out to be 174 to 176 °C

Quick note, melting point for `Cc1nc(-c2ccc(Cl)cc2)n(-c2ccc(S(C)(=O)=O)cc2)n1` landed at 184 to 185 °C

response.value for `CCCCCCCCOC(=O)C=Cc1ccc(N(C)C)cc1` (field: melting point) = 48 to 49.5 °C

Recorded result, CCC(=O)OC1C(CO)OC(n2cnc3c(N)ncnc32)C1OC(=O)CC (stereo not given) , melting point: 172 to 173 °C

Please fill in: melting point reported for `O=C(NCc1ccc2c(c1)OCO2)c1ccc2[nH]c(=O)n(Cc3ccc4c(c3)OCO4)c(=O)c2c1` = 245 °C

Lab book: melting point of `O=c1ccc(-c2ccc(OC(F)F)c(OCC3CC3)c2)n[nH]1` noted as 142 °C

Note to self: melting point recorded for `Cc1cc(C)c(S(=O)(=O)NCCCCNS(=O)(=O)c2c(C)cc(C)cc2C)c(C)c1` was 156 to 158 °C

* * *

The compounds listed here are annotated with their melting point.

Consider the reported melting point for these compounds:
# compound, melting point
data = [
    ("Cc1cccc(-c2n[nH]cc2-c2ccc(F)c(-c3ccc(OCCO)cn3)c2)n1", "148 to 151 °C"),
    ("N#Cc1ccc(-c2ccncc2OC2SCC(O)C(O)C2O)cc1 (stereo not drawn)", "238 °C"),
    ("CC(C)[C@H](NC(=O)N(C)Cc1ccccn1)C(=O)N[C@@H](Cc1ccccc1)[C@@H](O)[C@@H](O)[C@H](Cc1ccccc1)NC(=O)OCc1cccnc1", "84 to 85 °C"),
    ("CCc1cccc(CC)c1NC(=O)C1c2ccccc2COc2ccc(C(C)C)cc21 (stereo not drawn)", "170 °C"),
]

Noted for O=S(=O)(c1ccc(O)cc1)N1c2ccccc2-c2ccccc2C1c1ccccc1 (stereo not drawn) : its melting point reads 210 to 212 °C

Noted for `O=C1NCCc2c(-c3cccc(CCO)c3)[nH]c3cccc1c23` : its melting point reads 188 °C

Per the records, this compound ( `CCOC(=O)C(=O)NNC(=O)c1cc2cccc(N(C)S(=O)(=O)c3cccs3)c2[nH]1` ) has melting point equal to 133 to 134 °C

Note to self: melting point recorded for `O=C(O)[C@@H]1CCCN1C(=O)c1cc2cc3c(cc2c2cc(OCc4ccccc4)ccc12)OCO3` was 221 to 223 °C

// provenance: a melting point compilation (Tetko et al.; mined from patent text by program, amines drawn as free bases though some values may be those of a salt)
